Reference source: patent US9981972B2

Target: human LYPLA1 (Homo sapiens)
Construct: endogenous human LYPLA1/2 in a HeLa soluble proteome; endogenous in cells; host or cells: HeLa (soluble proteome in vitro; cultured cells in situ)
Sequence (O75608 whole entry): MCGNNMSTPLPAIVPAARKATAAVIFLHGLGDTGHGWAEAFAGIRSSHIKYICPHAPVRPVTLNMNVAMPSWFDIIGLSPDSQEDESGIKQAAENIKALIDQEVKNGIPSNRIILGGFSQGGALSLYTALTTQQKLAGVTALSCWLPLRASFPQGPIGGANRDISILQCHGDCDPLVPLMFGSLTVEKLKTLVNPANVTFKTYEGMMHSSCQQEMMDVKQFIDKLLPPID
Experiment: IC50 by gel-based competitive ABPP in vitro, soluble HeLa cell proteome
Format: biochemical
Conditions: human LYPLA isoform, three replicates; Table 2 prints no unit, nM; read-out: LYPLA1 IC50
Consider the following molecules; for each one, report its IC50.
The answer is to be given in nM; state only the numeric part.

Query :: Give human LYPLA1 (Homo sapiens) IC50 for O=C(ON1C(=O)C2CN(C(=O)N3CCCCC3)CCN2C1=O)N1CCC(CCc2ccc(Cl)cc2)CC1 (stereo not shown) [Compound 2]
Result :: 154

Query :: Give human LYPLA1 (Homo sapiens) IC50 for O=C(ON1C(=O)C2CN(C(=O)c3ccc(Br)cc3)CCN2C1=O)N1CCC(CCc2ccc(Cl)cc2)CC1 (stereo not shown) [Compound 7]
Result :: 306

Query :: Give human LYPLA1 (Homo sapiens) IC50 for CC(C)(C)CC(=O)N1CCN2C(=O)N(OC(=O)N3CCC(CCc4ccc(Cl)cc4)CC3)C(=O)C2C1 (stereo not shown) [Compound 4]
Result :: 92

Query :: Give human LYPLA1 (Homo sapiens) IC50 for O=C(ON1C(=O)C2CN(C(=O)N3CCCC3)CCN2C1=O)N1CCC(CCc2ccc(Cl)cc2)CC1 (stereo not shown) [Compound 3]
Result :: 225

----------
Target: mABHD3 (Mus musculus)
Construct: expressed in transfected cells; host or cells: HEK293T, transient transfection, pCMV-Sport6; lysate used in vitro
Sequence (Q91ZH7 1-411): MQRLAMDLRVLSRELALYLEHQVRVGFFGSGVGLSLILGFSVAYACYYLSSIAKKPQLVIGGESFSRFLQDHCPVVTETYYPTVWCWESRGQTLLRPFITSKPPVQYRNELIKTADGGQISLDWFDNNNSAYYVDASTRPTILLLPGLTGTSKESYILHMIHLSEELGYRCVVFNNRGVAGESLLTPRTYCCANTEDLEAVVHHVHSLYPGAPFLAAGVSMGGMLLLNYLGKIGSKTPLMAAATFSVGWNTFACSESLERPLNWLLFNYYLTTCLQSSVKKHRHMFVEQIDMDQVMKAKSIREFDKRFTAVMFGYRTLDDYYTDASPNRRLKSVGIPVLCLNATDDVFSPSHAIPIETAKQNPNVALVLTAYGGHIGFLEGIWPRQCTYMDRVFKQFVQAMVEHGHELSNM
Experiment: Gel-based competitive ABPP, recombinant enzyme in transfected HEK293T cell lysates
Assay type: biochemical
Conditions: transfected HEK293T lysates, read-out: mABHD3 in vitro potency (IC50)
Consider the following molecules; for each one, report its IC50.

Query :: Please report the recorded IC50 for O=C(ON1C(=O)C2CN(Cc3cccc(Oc4ccccc4)c3)CCN2C1=O)N1CCC(CCc2ccc(Cl)cc2)CC1 (stereo not drawn) .
Result :: > 10 µM

Query :: Please report the recorded IC50 for COc1ccc(N2CCN(C(=O)ON3C(=O)C4CN(Cc5ccc(Oc6ccccc6)cc5)CCN4C3=O)CC2)cc1 (stereo not drawn) .
Result :: 7.6 µM

Query :: Please report the recorded IC50 for O=C(ON1C(=O)C2CN(Cc3ccc(Oc4ccccc4)cc3)CCN2C1=O)N1CCOCC1 (stereo not drawn) .
Result :: > 10 µM

Query :: Please report the recorded IC50 for COC(=O)C1CCN(C(=O)ON2C(=O)C3CN(Cc4ccc(Oc5ccccc5)cc4)CCN3C2=O)CC1 (stereo not drawn) .
Result :: > 10 µM

Query :: Please report the recorded IC50 for O=C(ON1C(=O)C2CN(Cc3ccc(Oc4ccccc4)cc3)CCN2C1=O)N1CCC(c2ccccc2)CC1 (stereo not drawn) .
Result :: 0.1 µM

Query :: Please report the recorded IC50 for COc1ccc(N2CCN(C(=O)ON3C(=O)C4CN(Cc5cccc(Oc6ccccc6)c5)CCN4C3=O)CC2)cc1 (stereo not drawn) .
Result :: > 10 µM
